target: JMJD2C (Homo sapiens (Human))
Sequence (Q9H3R0 2-372): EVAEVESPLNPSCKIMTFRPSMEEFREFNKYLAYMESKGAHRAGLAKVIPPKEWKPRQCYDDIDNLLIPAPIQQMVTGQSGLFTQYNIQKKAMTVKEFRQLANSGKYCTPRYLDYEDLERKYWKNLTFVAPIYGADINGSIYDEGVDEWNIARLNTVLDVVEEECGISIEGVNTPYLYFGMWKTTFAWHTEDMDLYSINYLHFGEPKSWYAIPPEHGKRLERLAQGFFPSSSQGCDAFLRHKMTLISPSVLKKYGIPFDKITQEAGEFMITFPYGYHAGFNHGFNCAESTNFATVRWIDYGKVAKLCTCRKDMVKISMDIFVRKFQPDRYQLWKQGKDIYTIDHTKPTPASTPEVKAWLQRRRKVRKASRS
readoutName: IC50

CNCC(C)c1ccc(N(C)c2ccc(Oc3nc(O)c4ccncc4n3)cc2)cc1 (stereo not shown): ≤ 0.1 µM
CN(c1ccccc1)c1cccc(Oc2nc(O)c3ccncc3n2)c1: 1 to 10 µM
CN(c1ccc(Oc2nc(O)c3ccncc3n2)cc1)c1ccnc(N2CCOCC2)c1: ≤ 0.1 µM
Oc1nc(Oc2ccc3c(ccn3C3CCOCC3)c2)nc2cnccc12: 0.1 to 1 µM
CC(C)c1ccc(N(C)c2ccc(Oc3nc(O)c4ccncc4n3)cc2)cn1: 0.1 to 1 µM

Lab entry: JMJD2C (Homo sapiens (Human)) assay, molecule CN(CCc1ccccc1)c1ccc(Oc2nc(O)c3ccncc3n2)cc1 , IC50 = 0.1 to 1 µM

# lookup: CN(c1ccc(Oc2nc(O)c3ccncc3n2)cc1)c1ccc(C2CCOCC2)cc1 on JMJD2C (Homo sapiens (Human)), IC50 = 0.1 to 1 µM

---

tested on: KYSE-150 esophageal carcinoma cell line; experiment: In vitro cell-based assay: BrdU incorporation cell proliferation ELISA; set-up: species or system human; details: Homo sapiens, KYSE-150 cells, 168 hours compound incubation, read-out: Cellular IC50
pIC50: −log10 of the molar value.
readoutName: pIC50

CN(c1ccc(Oc2nc(O)c3ccncc3n2)cc1)c1ccc(C2=CCOCC2)cc1: < 5.00
Oc1nc(Oc2ccc3c(ccn3C3CCOCC3)c2)nc2cnccc12: < 5.00
CN(c1ccc(Oc2nc(O)c3ccncc3n2)cc1)c1cccc(C(F)(F)F)c1: 6.00 to 7.00

The observed pIC50 for CN(c1ccc(C#N)cc1)c1ccc(Oc2nc(O)c3ccncc3n2)cc1 when tested with KYSE-150 esophageal carcinoma cell line stands at < 5.00

Form field, pIC50 with KYSE-150 esophageal carcinoma cell line, item CN(c1ccc(Oc2nc(O)c3ccncc3n2)cc1)c1cccc(N2CCCC2)c1 : < 5.00

---

pIC50: −log10 of the molar value.
Below are pIC50 values recorded for JMJD2C (Homo sapiens (Human), UniProt Q9H3R0).

Use these answered entries as a reference point.
CN(CC1CCc2ccccc21)c1ccc(Oc2nc(O)c3ccncc3n2)cc1 (stereo not drawn): 6.00 to 7.00
CN(c1ccc(Oc2nc(O)c3ccncc3n2)cc1)c1ccc(C(C)(C)CO)cc1: 6.00 to 7.00
Oc1nc(Oc2ccc3nn(Cc4ccccc4)cc3c2)nc2cnccc12: 6.00 to 7.00
CN(c1ccc(OCC(C)(C)C)cc1)c1ccc(Oc2nc(O)c3ccncc3n2)cc1: 5.00 to 6.00
Cc1ccc(N(C)c2ccc(Oc3nc(O)c4ccncc4n3)cc2)cc1: 6.00 to 7.00

Turning now to a further record.
Documented pIC50 of CN(c1ccc(Oc2nc(O)c3ccncc3n2)cc1)c1ccccc1F : 6.00 to 7.00
